Give measured IC50 for each item. Keep answers brief.
Tested on: HepG2
Assay: Cytotoxicity against human HepG2 cells assessed as reduction in cell viability after 48 hrs by MTT assay
Type: functional, cell-based
Settings: HepG2, 48 h, read-out: IC50
Answers are plain numbers, in µM.

Please give IC50, item by item, for the list that follows.
1. CN1CCN(CCCOc2c(O)cc(O)c3c(=O)cc(-c4ccccc4)oc23)CC1
2. COc1c(OCCCN(CCO)CCO)cc(O)c2c(=O)cc(-c3ccccc3)oc12
3. COc1c(O)cc(O)c2c(=O)cc(-c3ccc(Cl)cc3)oc12
4. COc1c(O)cc(O)c2c(=O)cc(-c3ccc(Br)cc3)oc12

Output line:
[42.6, 3.79, 34.2, 38.2]

Please give IC50, item by item, for the list that follows.
1. CC(C)NCCCCOc1c(O)cc(O)c2c(=O)cc(-c3ccccc3)oc12
2. CN1CCN(CCCCOc2c(O)cc(O)c3c(=O)cc(-c4ccccc4)oc23)CC1
3. CCCCNCCOc1c(O)cc(O)c2c(=O)cc(-c3ccccc3)oc12

Output line:
1: 29.9; 2: 15.1; 3: 57.2

---

System: HepG2
Assay: Cytotoxicity against human HepG2 cells assessed as reduction in cell viability after 48 hrs by MTT assay
Format: functional, cell-based
Conditions: HepG2, 48 h, read-out: IC50
Give measured IC50 for each item. Keep answers brief.
Numbers only, in µM.

Some entries whose results are on file:
Input line: Entry "COc1c(OCCCCN2CCN(C)CC2)cc(O)c2c(=O)cc(-c3ccccc3)oc12" : reported IC50 = ?
Output line: 1.12

Input line: Can you handle "CN(C)CCCCOc1c(O)cc(O)c2c(=O)cc(-c3ccccc3)oc12" next?
Output line: 35.7

Input line: Can you handle "COc1c(OCCCN2CCNCC2)cc(O)c2c(=O)cc(-c3ccccc3)oc12" next?
Output line: 9.14

Please give IC50, item by item, for the list that follows.
1. O=c1cc(-c2ccccc2)oc2c(OCCCCN3CCOCC3)c(O)cc(O)c12
2. CC(CO)NCCOc1c(O)cc(O)c2c(=O)cc(-c3ccccc3)oc12 (stereo not given)

Output line:
1: 15.1; 2: 43.5

Please give IC50, item by item, for the list that follows.
1. COc1c(OCCCN2CCCC2)cc(O)c2c(=O)cc(-c3ccccc3)oc12
2. CCCCNCCCCOc1c(O)cc(O)c2c(=O)cc(-c3ccccc3)oc12
3. CNCCOc1c(O)cc(O)c2c(=O)cc(-c3ccccc3)oc12
4. CCCNCCCCOc1c(O)cc(O)c2c(=O)cc(-c3ccccc3)oc12
5. COc1c(OCCCCN2CCCCC2)cc(O)c2c(=O)cc(-c3ccccc3)oc12

Output line:
15.4
38.9
64.2
9.99
1.97

---

Give measured pIC50 for each item. Keep answers brief.
Tested on: HepG2
Test: Cytotoxicity against human HepG2 cells assessed as reduction in cell viability after 48 hrs by MTT assay
Assay type: functional, cell-based
Settings: HepG2, 48 h, read-out: IC50
Answers are plain numbers, as −log10 of the molar value.

Some entries whose results are on file:
Input line: Entry "COc1c(OCCCCN(CCO)CCO)cc(O)c2c(=O)cc(-c3ccccc3)oc12" : reported pIC50 = ?
Output line: 5.58

Input line: Can you handle "COc1c(OCCCN2CCN(C)CC2)cc(O)c2c(=O)cc(-c3ccccc3)oc12" next?
Output line: 4.50

Input line: Can you handle "CCN(CC)CCCOc1c(O)cc(O)c2c(=O)cc(-c3ccccc3)oc12" next?
Output line: 4.17

Please give pIC50, item by item, for the list that follows.
1. COc1c(O)cc(O)c2c(=O)cc(-c3ccc(C)cc3)oc12
2. CN(C)CCOc1c(O)cc(O)c2c(=O)cc(-c3ccccc3)oc12

Output line:
1. 4.60
2. 4.40

---

Give measured IC50 for each item. Keep answers brief.
System: HepG2
Test: Cytotoxicity against human HepG2 cells assessed as reduction in cell viability after 48 hrs by MTT assay
Assay type: functional, cell-based
Settings: HepG2, 48 h, read-out: IC50
One number for each entry, in µM.

Input line: Entry "CCN(CC)CCOc1c(O)cc(O)c2c(=O)cc(-c3ccccc3)oc12" : reported IC50 = ?
Output line: 68.1

Input line: Can you handle "COc1c(O)cc(O)c2c(=O)cc(-c3ccc(F)cc3)oc12" next?
Output line: 43.9

Input line: Can you handle "COc1c(OCCCN2CCOCC2)cc(O)c2c(=O)cc(-c3ccccc3)oc12" next?
Output line: 6.5

Input line: Can you handle COc1c(O)cc(O)c2c(=O)cc(-c3ccccc3)oc12 [WOGONIN] next?
Output line: 19

Input line: Can you handle "O=c1cc(-c2ccccc2)oc2c(OCCCCNC3CCCCC3)c(O)cc(O)c12" next?
Output line: 10.9

Please give IC50, item by item, for the list that follows.
1. CCN(CC)CCCOc1cc(O)c2c(=O)cc(-c3ccccc3)oc2c1OC
2. CN(C)CCCOc1c(O)cc(O)c2c(=O)cc(-c3ccccc3)oc12
3. COc1c(OCCCCN2CCNCC2)cc(O)c2c(=O)cc(-c3ccccc3)oc12

Output line:
[3.33, 41.8, 1.07]

---

System: HepG2
Assay: Cytotoxicity against human HepG2 cells assessed as reduction in cell viability after 48 hrs by MTT assay
Assay type: functional, cell-based
Settings: HepG2, 48 h, read-out: IC50
MEASURED_METRIC: pIC50
One number for each entry, as −log10 of the molar value.

Input line: Entry "CCCNCCOc1c(O)cc(O)c2c(=O)cc(-c3ccccc3)oc12" : reported pIC50 = ?
Output line: 4.01

Please give pIC50, item by item, for the list that follows.
1. O=c1cc(-c2ccccc2)oc2c(OCCN3CCCC3)c(O)cc(O)c12
2. O=c1cc(-c2ccccc2)oc2c(OCCCN3CCOCC3)c(O)cc(O)c12

Output line:
[4.16, 4.67]

---

Give measured IC50 for each item. Keep answers brief.
Tested on: HepG2
Assay: Cytotoxicity against human HepG2 cells assessed as reduction in cell viability after 48 hrs by MTT assay
Type: functional, cell-based
Settings: HepG2, 48 h, read-out: IC50
One number for each entry, in µM.

Input line: Entry "COc1c(OCc2nc3ccccc3[nH]2)cc(O)c2c(=O)cc(-c3ccccc3)oc12" : reported IC50 = ?
Output line: 29.4

Input line: Can you handle COc1ccc(-c2cc(=O)c3c(O)cc(O)c(OC)c3o2)cc1 [GALANGUSTIN] next?
Output line: 42.4

Input line: Can you handle "CC(C)NCCOc1c(O)cc(O)c2c(=O)cc(-c3ccccc3)oc12" next?
Output line: 14.1

Input line: Can you handle "COc1c(OCCCCNCc2ccccc2)cc(O)c2c(=O)cc(-c3ccccc3)oc12" next?
Output line: 45.7

Input line: Can you handle "O=c1cc(-c2ccccc2)oc2c(OCCCN3CCCC3)c(O)cc(O)c12" next?
Output line: 58.5

Please give IC50, item by item, for the list that follows.
1. COc1c(OCCCNCc2ccccc2)cc(O)c2c(=O)cc(-c3ccccc3)oc12
2. COc1c(OCc2ncc(C)o2)cc(O)c2c(=O)cc(-c3ccccc3)oc12
3. CCN(CC)CCCCOc1cc(O)c2c(=O)cc(-c3ccccc3)oc2c1OC
4. CN1CCN(CCOc2c(O)cc(O)c3c(=O)cc(-c4ccccc4)oc23)CC1
5. O=c1cc(-c2ccccc2)oc2c(OCCN3CCOCC3)c(O)cc(O)c12
6. O=c1cc(-c2ccccc2)oc2c(OCCNCCO)c(O)cc(O)c12

Output line:
1: 8.12; 2: 20.2; 3: 1.72; 4: 56.6; 5: 39.9; 6: 57

Please give IC50, item by item, for the list that follows.
1. COc1c(OCc2cnoc2C)cc(O)c2c(=O)cc(-c3ccccc3)oc12
2. COc1c(OCCCCN2CCCC2)cc(O)c2c(=O)cc(-c3ccccc3)oc12

Output line:
21.7
3.61
